Biological target: T1, human C5a (human, UniProt P01031 678-751, biotinylated in the U937/C5aR ligand blocking assay (site not stated))
T1 construct: also called human antigen; huC5a
T1 sequence: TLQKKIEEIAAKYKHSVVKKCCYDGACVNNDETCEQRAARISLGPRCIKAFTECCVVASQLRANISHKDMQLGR
Test: SPR, scFv captured via anti-c-myc/anti-His, 5 nM human antigen as analyte, 1:1 fit
Each item that follows carries a reported koff.
Value expressed in s⁻¹; do not type the unit.

# annotated cases, reported koff shown
16C2 (scFv, V domains shown, Combination mutant scFv) VH: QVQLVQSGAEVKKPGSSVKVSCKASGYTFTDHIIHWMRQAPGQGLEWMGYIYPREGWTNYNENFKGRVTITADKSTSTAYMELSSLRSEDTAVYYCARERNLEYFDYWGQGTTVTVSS VL: DIVLTQSPASLAVSPGQRATITCKASQSVDYEGFNYMNWYQQKPGQPPKLLIYATSNLDSGVPARFSGSGSGTDFTLTINPVEAEDTANYYCQQSVEDPHTFGGGTKVEIK
2.58e-05
2H8E10 (scFv, V domains shown, Combination mutant scFv) VH: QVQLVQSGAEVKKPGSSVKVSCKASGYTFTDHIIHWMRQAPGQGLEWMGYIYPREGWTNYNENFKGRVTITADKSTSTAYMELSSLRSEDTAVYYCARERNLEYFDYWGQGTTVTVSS VL: DIVLTQSPASLAVSPGQRATITCKASQSVDYEGDNYMNWYQQKPGQPPKLLIYAASNLDSGVPARFSGSGSGTDFTLTINPVEAEDTANYYCQQSNEDPHTFGGGTKVEIK
1.82e-05

Next up:
For record 8H8 (scFv, V domains shown, Combination mutant scFv) VH: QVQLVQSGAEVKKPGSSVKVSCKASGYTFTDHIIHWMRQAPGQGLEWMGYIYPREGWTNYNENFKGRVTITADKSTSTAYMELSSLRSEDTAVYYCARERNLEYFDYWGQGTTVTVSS VL: DIVLTQSPASLAVSPGQRATITCKASQSVDYEGFNYMNWYQQKPGQPPKLLIYATSNLDSGVPARFSGSGSGTDFTLTINPVEAEDTANYYCQQSLEDPHTFGGGTKVEIK the listed koff is 2.69e-05

Where these numbers come from: patent US20240376189A1
